assay-system: Histamine H4 receptor (Homo sapiens, UniProt Q9H3N8)
Sequence (Q9H3N8 whole entry): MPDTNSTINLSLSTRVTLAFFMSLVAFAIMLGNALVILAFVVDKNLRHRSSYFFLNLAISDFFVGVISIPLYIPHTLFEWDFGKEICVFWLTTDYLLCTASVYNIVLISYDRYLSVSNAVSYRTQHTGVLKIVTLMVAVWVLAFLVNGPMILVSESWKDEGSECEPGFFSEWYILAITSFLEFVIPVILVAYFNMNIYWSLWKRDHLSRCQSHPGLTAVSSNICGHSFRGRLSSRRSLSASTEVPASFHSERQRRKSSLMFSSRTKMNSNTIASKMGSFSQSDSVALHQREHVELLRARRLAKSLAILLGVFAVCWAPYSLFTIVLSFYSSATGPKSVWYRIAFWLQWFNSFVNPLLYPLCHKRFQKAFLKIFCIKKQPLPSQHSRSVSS
method-summary: Agonist activity at human H4R by [35S]-GTPgammaS-binding assay
measurement-type: pEC50
// scale note: pEC50 = -log10(conc_M); give the bare number

// lookup pEC50 for NC(=NCc1ccc(Cl)cc1)SCCCc1cnc[nH]1 [CLOBENPROPIT] 7.65

----------
pKi: −log10 of the molar value.
Record set of pKi for target or system Histamine H1 receptor (Homo sapiens).

[
  {
    "smiles-code": "CC(C)(C)CNc1nccc(NCCCN)n1",
    "pKi": "< 5.00"
  }
]

Please tell me: pKi of CC(C)(C)CNc1nccc(N2CCN(C(=N)N)CC2)n1 , system Histamine H1 receptor (Homo sapiens)? < 6.00

Find pKi (Histamine H1 receptor (Homo sapiens)) for the entry CN1CCCN(c2ccnc(NCC(C)(C)C)n2)CC1.O=C(O)C(F)(F)F.O=C(O)C(F)(F)F < 5.00

Field: pKi (Histamine H1 receptor (Homo sapiens)). Entry: CC(C)(C)CNc1nccc(NCCN)n1 < 6.00

Could you share what pKi was measured for CC(C)(C)CNc1nccc(NC2CCNCC2)n1 , tested on Histamine H1 receptor (Homo sapiens)? < 5.00

Record lookup: for Histamine H1 receptor (Homo sapiens), what pKi belongs to Cc1[nH]cnc1CSCCNc1ccnc(NCC(C)(C)C)n1 ? < 6.00

Could you share what pKi was measured for CN(C)[C@@H]1CCN(c2ccnc(NCC(C)(C)C)n2)C1.O=C(O)C(F)(F)F.O=C(O)C(F)(F)F , tested on Histamine H1 receptor (Homo sapiens)? < 5.00
